Where these numbers come from: the Immune Epitope Database (IEDB)

target: HLA-A*69:01; test: IEDB peptide-MHC binding, purified MHC/direct/fluorescence; filed as Kd, often an IC50 or EC50 that approximates it; bounds were set here for any values at or beyond the usual limits of such assays; details: source organism: Yersinia pestis
measurement_name: Kd (nM)
Answer in nM, number only, no unit symbol.

Q: Given the entry WLWVSSSDM , report its measured Kd.
Result: 114

----------
target: HLA-B*15:01; experiment: IEDB peptide-MHC binding, purified MHC/direct/fluorescence; filed as Kd, often an IC50 or EC50 that approximates it; bounds were set here for any values at or beyond the usual limits of such assays; settings: source organism: Brucella abortus
measurement_name: Kd

Q: Given the entry FSDVSHWWQ , report its measured Kd.
Result: ≥ 20 µM
